These entries and their values trace back to paper PMC11577759.

- protocol notes: Cytotoxicity, CyQUANT XTT cell viability assay
- Format: cell-based, Chlorocebus sp.
- assay context: Chlorocebus sp. (African green monkey), Vero E6 cells; 45 µg/mL
Starred links: 1 amine or outer side, 2 acyl side, 3 side chain; linkers in the order of their positions; H or OH if unused. Positions of bridges follow the written chain, without caps; N, C: chain ends. Non-standard residues stand in square brackets, D forms with d. Residues, ends and D or L forms follow the SMILES beside them. X1 = CC(C)CCCCCCCCC[C@H](CC(=O)[*:1])O[*:2]

[
  {
    "compound": "CC(C)CCCCCCCCC[C@@H]1CC(=O)N[C@@H](CCC(=O)O)C(=O)N[C@@H](CC(C)C)C(=O)N[C@H](CC(C)C)C(=O)N[C@@H](C(C)C)C(=O)N[C@@H](CC(=O)O)C(=O)N[C@H](CC(C)C)C(=O)N[C@@H](CC(C)C)C(=O)O1 [Surfactin] (EL[dL]VD[dL]L; linker N-C via X1)",
    "viability at 72 h, 45 µg/mL": "~0%"
  }
]

###

- protocol notes: Cytotoxicity, CyQUANT XTT cell viability assay
- Assay type: cell-based, Chlorocebus sp.
- assay context: Chlorocebus sp. (African green monkey), Vero E6 cells (kidney epithelial cells); Vero E6 cells, 72 h, XTT; mean (standard deviation); fengycin and caspofungin determined at higher concentrations in a subsequent experiment; read-out: IC50 (half maximal inhibitory concentration, cytotoxicity)
Starred links: 1 amine or outer side, 2 acyl side, 3 side chain; linkers in the order of their positions; H or OH if unused. Positions of bridges follow the written chain, without caps; N, C: chain ends. Non-standard residues stand in square brackets, D forms with d. Residues, ends and D or L forms follow the SMILES beside them. X1 = CC(C)CCCCCCCCC[C@H](CC(=O)[*:1])O[*:2]

[
  {
    "compound": "CCC(=O)CCCCC[C@@H]1NC(=O)[C@H]2CCCCN2C(=O)[C@H]([C@@H](C)CC)NC(=O)[C@H](Cc2cn(OC)c3ccccc23)NC1=O",
    "op": "=",
    "IC50 at 72 h, µg/mL": 0.7
  },
  {
    "compound": "CCCCCCCCCC(=O)N[C@@H](Cc1c[nH]c2ccccc12)C(=O)N[C@H](CC(N)=O)C(=O)N[C@@H](CC(=O)O)C(=O)N[C@@H]1C(=O)NCC(=O)N[C@@H](CCCN)C(=O)N[C@@H](CC(=O)O)C(=O)N[C@H](C)C(=O)N[C@@H](CC(=O)O)C(=O)NCC(=O)N[C@H](CO)C(=O)N[C@@H]([C@H](C)CC(=O)O)C(=O)N[C@@H](CC(=O)c2ccccc2N)C(=O)O[C@@H]1C [Daptomycin, reference compound]",
    "op": ">",
    "IC50 at 72 h, µg/mL": 100
  },
  {
    "compound": "CC(C)CCCCCCCCC[C@@H]1CC(=O)N[C@@H](CCC(=O)O)C(=O)N[C@@H](CC(C)C)C(=O)N[C@H](CC(C)C)C(=O)N[C@@H](C(C)C)C(=O)N[C@@H](CC(=O)O)C(=O)N[C@H](CC(C)C)C(=O)N[C@@H](CC(C)C)C(=O)O1 [Surfactin] (EL[dL]VD[dL]L; linker N-C via X1)",
    "op": "=",
    "IC50 at 72 h, µg/mL": 51.5
  },
  {
    "compound": "CC[C@H](C)C[C@H](C)CCCCCCCCC(=O)N[C@H]1C[C@@H](O)[C@@H](NCCN)NC(=O)[C@@H]2[C@@H](O)CCN2C(=O)[C@H]([C@H](O)CCN)NC(=O)[C@H]([C@H](O)[C@@H](O)c2ccc(O)cc2)NC(=O)[C@@H]2C[C@@H](O)CN2C(=O)[C@H]([C@@H](C)O)NC1=O [Caspofungin, reference compound]",
    "op": "=",
    "IC50 at 72 h, µg/mL": 129
  }
]

###

# viability at 72 h per record follows
- protocol notes: Cytotoxicity, CyQUANT XTT cell viability assay
- Format: cell-based, Chlorocebus sp.
- assay context: Chlorocebus sp. (African green monkey), Vero E6 cells; surfactin 35, WLIP 20, fengycin 50, caspofungin 100 µg/mL; 72 h, Vero E6 (Fig. 5)
Starred links: 1 amine or outer side, 2 acyl side, 3 side chain; linkers in the order of their positions; H or OH if unused. Positions of bridges follow the written chain, without caps; N, C: chain ends. Non-standard residues stand in square brackets, D forms with d. Residues, ends and D or L forms follow the SMILES beside them. X1 = CC(C)CCCCCCCCC[C@H](CC(=O)[*:1])O[*:2]

[
  {
    "compound": "CC[C@H](C)C[C@H](C)CCCCCCCCC(=O)N[C@H]1C[C@@H](O)[C@@H](NCCN)NC(=O)[C@@H]2[C@@H](O)CCN2C(=O)[C@H]([C@H](O)CCN)NC(=O)[C@H]([C@H](O)[C@@H](O)c2ccc(O)cc2)NC(=O)[C@@H]2C[C@@H](O)CN2C(=O)[C@H]([C@@H](C)O)NC1=O [Caspofungin, reference compound]",
    "measurement units": "%",
    "viability at 72 h": 96.9
  },
  {
    "compound": "CC(C)CCCCCCCCC[C@@H]1CC(=O)N[C@@H](CCC(=O)O)C(=O)N[C@@H](CC(C)C)C(=O)N[C@H](CC(C)C)C(=O)N[C@@H](C(C)C)C(=O)N[C@@H](CC(=O)O)C(=O)N[C@H](CC(C)C)C(=O)N[C@@H](CC(C)C)C(=O)O1 [Surfactin] (EL[dL]VD[dL]L; linker N-C via X1)",
    "measurement units": "%",
    "viability at 72 h": 98.5
  }
]
